# target-under-test: CaRvs167
# assay-name: SPOT peptide array binding signal intensity (averaged, normalized) (arbitrary units (background-subtracted, floor 0; scale differs between SH3 domains)); higher = stronger binding of the SH3 domain to the peptide
Entries and their measured SPOT peptide array binding signal intensity follow.

Check out these entries, answers already filled in.
NNQRRKPLLLNIGDH :: 12
ISPPASPPPEFDFSK :: 0.833
MAMRPIPPLPTESEY :: 528

## Input Give the measured SPOT peptide array binding signal intensity for GPPPPLPPPLFPSSS
## Output 7.83

Sourced from the supplement of paper PMC4466140
